- Tested on: 186277-243-T-J2-PDC complex spheroids, viability
- method summary: Anticancer human tumor 186277-243-T-J2-PDC patient-derived colon adenocarcinoma cell line growth inhibition [RAS]
- conditions used: curve of first compound; second compound 0.1 µM
- Description: RAS pathway inhibitors in Combinations in Complex Spheroids A high-throughput screen of multi-cell type tumor spheroids was designed to identify active combinations of RAS pathway inhibitors and targeted small molecules. Complex spheroids include a stromal component modeled by human endothelial cells (HUVEC) and fibroblasts modeled by human mesenchymal stem cells (MSCs). […] Compounds. […] If the clinical Cmax for an agent had not been determined, the highest concentration tested was 10 microM. […]
pIC50: −log10 of the molar value.
readout name: pIC50

compound: O=C(c1ccc(F)c(F)c1Nc1ccc(I)cc1F)N1CC(O)([C@@H]2CCCCN2)C1 + C=CC(=O)N1CCN(c2nc(OCC3CCCN3C)nc3c(F)c(-c4nc(N)cc(C)c4C(F)(F)F)c(Cl)cc23)C(C)C1
reading: 7.13

[I] CC1(O)CCCC1n1c(=O)c(C(F)F)cc2cnc(NC3CCN(S(C)(=O)=O)CC3)nc21 (centres undefined) + C#Cc1c(F)ccc2cc(O)cc(-c3ncc4c(N5CC6CCC(C5)N6)nc(OCC56CCCN5CC(F)C6)nc4c3F)c12
[II] C=CC(=O)N1CCN(c2nc(OCC3CCCN3C)nc3c(F)c(-c4nc(N)cc(C)c4C(F)(F)F)c(Cl)cc23)C(C)C1 (centres undefined) + C#Cc1c(F)ccc2cc(O)cc(-c3ncc4c(N5CC6CCC(C5)N6)nc(OCC56CCCN5CC(F)C6)nc4c3F)c12
Q. Which gives the smaller pIC50 number: I or II ? Pick one; state its label.
A. II

* * *

- System: 186277-243-T-J2-PDC complex spheroids, viability
- method summary: Anticancer human tumor 186277-243-T-J2-PDC cell line growth inhibition [RAS];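 further: spheroids exposed to compounds for 7 days before viability read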
- conditions used: second compound 0.316 µM; first compound 0.316 µM; stronger effect = lower value
List of viability, T/C values.
Give the value, in units of %, as a plain number.

// known answers, use as guide
compound: CC(=O)OC12COC1CC(O)C1(C)C(=O)C(O)C3=C(C)C(OC(=O)C(O)C(NC(=O)OC(C)(C)C)c4ccccc4)CC(O)(C(OC(=O)c4ccccc4)C21)C3(C)C (stereo not given) + C#Cc1c(F)ccc2cc(O)cc(-c3ncc4c(N5CC6CCC(C5)N6)nc(OCC56CCCN5CC(F)C6)nc4c3F)c12
viability, T/C [%]: 4.48
//
compound: C=CC(=O)Nc1cc(Nc2nccc(-c3cn(C)c4ccccc34)n2)c(OC)cc1N(C)CCN(C)C + C#Cc1c(F)ccc2cc(O)cc(-c3ncc4c(N5CC6CCC(C5)N6)nc(OCC56CCCN5CC(F)C6)nc4c3F)c12
viability, T/C [%]: 10.4
//
compound: Cc1nc(N2CCC3(CC2)COC(C)C3N)c(CO)nc1Sc1ccnc(N)c1Cl (stereo not given) + C#Cc1c(F)ccc2cc(O)cc(-c3ncc4c(N5CC6CCC(C5)N6)nc(OCC56CCCN5CC(F)C6)nc4c3F)c12
viability, T/C [%]: 9.91
//
compound: CCN1CCN(Cc2ccc(Nc3ncc(F)c(-c4cc(F)c5nc(C)n(C(C)C)c5c4)n3)nc2)CC1 + C=CC(=O)N1CCN(c2nc(OCC3CCCN3C)nc3c(F)c(-c4nc(N)cc(C)c4C(F)(F)F)c(Cl)cc23)C(C)C1
viability, T/C [%]: 152

We next turn to a different compound, shown below.
Q. Output measured viability, T/C for this item: O=C(c1ccc(F)c(F)c1Nc1ccc(I)cc1F)N1CC(O)([C@@H]2CCCCN2)C1 + C#Cc1c(F)ccc2cc(O)cc(-c3ncc4c(N5CC6CCC(C5)N6)nc(OCC56CCCN5CC(F)C6)nc4c3F)c12
A. 4.54
